biological target: T1, human MSLN-FL-his protein (human, UniProt Q13421 296-580); test: ELISA, coated antigen, antibody 2 nM
T1 construct: Made in HEK293E cells, purified on nickel column; also called hMSLN-FL-his; human MSLN full-length protein; not shown: His tag
T1 sequence (Q13421 other isoform, or with tags, fused parts or gaps): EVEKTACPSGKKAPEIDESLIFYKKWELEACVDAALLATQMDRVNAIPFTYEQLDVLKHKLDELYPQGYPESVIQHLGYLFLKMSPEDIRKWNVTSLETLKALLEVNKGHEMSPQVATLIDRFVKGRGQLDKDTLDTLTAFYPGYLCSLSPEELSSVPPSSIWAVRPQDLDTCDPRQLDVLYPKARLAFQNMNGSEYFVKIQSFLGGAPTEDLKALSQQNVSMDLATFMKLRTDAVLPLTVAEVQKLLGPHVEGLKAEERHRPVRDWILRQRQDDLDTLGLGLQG
assay-endpoint: OD450
The answer should be written as a number, with no unit following it.

Worked examples, 4 binders total:
- binder: "S009-F7.11.11 chimeric antibody (antibody, human IgG1, kappa, V domains shown, Human-murine chimeric antibody, human IgG1/kappa constant regions) VH: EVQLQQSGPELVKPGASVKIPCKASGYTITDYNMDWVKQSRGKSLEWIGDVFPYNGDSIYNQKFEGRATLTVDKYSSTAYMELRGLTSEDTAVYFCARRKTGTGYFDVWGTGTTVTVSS VL: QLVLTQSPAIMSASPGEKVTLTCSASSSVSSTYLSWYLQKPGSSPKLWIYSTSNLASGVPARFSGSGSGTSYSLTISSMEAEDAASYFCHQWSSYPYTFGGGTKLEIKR"
  OD450: 2.13
- binder: "S009-F7.61.21 chimeric antibody (antibody, human IgG1, kappa, V domains shown, Human-murine chimeric antibody, human IgG1/kappa constant regions) VH: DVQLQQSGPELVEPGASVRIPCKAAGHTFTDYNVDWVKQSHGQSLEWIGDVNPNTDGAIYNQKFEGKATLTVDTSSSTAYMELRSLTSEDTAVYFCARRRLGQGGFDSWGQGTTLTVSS VL: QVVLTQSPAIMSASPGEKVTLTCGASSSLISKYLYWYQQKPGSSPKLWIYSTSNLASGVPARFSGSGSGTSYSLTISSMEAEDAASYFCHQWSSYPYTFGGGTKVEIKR"
  OD450: 2.14
- binder: "S009-F7.69.8 chimeric antibody (antibody, human IgG1, kappa, V domains shown, Human-murine chimeric antibody, human IgG1/kappa constant regions) VH: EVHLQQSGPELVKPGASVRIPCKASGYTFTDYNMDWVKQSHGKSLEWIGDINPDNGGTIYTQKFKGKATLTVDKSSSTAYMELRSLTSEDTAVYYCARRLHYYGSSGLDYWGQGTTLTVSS VL: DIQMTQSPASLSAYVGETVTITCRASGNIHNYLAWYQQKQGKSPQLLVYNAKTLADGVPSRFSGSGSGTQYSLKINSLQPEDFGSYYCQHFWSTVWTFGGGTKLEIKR"
  OD450: 2.29
- binder: "S009-F7.44.20 chimeric antibody (antibody, human IgG1, kappa, V domains shown, Human-murine chimeric antibody, human IgG1/kappa constant regions) VH: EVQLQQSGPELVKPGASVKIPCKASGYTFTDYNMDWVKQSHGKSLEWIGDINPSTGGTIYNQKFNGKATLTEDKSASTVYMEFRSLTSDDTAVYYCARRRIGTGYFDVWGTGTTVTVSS VL: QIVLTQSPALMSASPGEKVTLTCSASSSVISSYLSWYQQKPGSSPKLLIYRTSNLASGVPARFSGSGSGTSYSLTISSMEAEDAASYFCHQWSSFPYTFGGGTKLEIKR"
  OD450: 2.24

binder S009-F7.66.12 chimeric antibody (antibody, human IgG1, kappa, V domains shown, Human-murine chimeric antibody, human IgG1/kappa constant regions) VH: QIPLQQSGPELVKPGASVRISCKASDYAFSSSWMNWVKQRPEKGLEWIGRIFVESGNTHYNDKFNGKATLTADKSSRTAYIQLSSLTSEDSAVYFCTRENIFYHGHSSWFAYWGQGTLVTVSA VL: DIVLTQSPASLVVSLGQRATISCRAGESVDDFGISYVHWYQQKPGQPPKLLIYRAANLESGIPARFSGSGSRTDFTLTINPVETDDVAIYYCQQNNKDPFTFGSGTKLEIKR , OD450 observed: 2.23
